Values from patent US20260116963A1

Listing: kon of selected binders
Biological target: T1, human IL-13 (human, UniProt P35225 25-146, limits assumed)
T1 construct: The KinExA antigen was detected with an anti-HIS IgG, so it probably carried a HIS tag; also called Interleukin-13; hIL-13
T1 sequence (P35225 other isoform, or with tags, fused parts or gaps limits assumed): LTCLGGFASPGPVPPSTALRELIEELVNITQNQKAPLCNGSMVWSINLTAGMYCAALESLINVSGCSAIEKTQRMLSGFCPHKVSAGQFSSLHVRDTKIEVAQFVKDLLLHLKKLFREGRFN
Assay: SPR array (Carterra LSA), antibody captured on anti-human pAb HC30M chip, human IL-13 0.05-100 nM as analyte, 25 C, 1:1 fit

Completed entries (count: 5):
[
  {
    "BINDER": "NB-9 (antibody, human IgG4 S228P, kappa, V domains shown) VH: QVTLRESGPALVKPTQTLTLTCTVSGFSLSAYSVNWIRQPPGKALEWLAMIWGSGKIVYNSALKSRLTISKDTSKNQVVLTMTNMDPVDTATYYCAGDGYYPYAMDNWGQGSLVTVSS VL: DIVMTQSPDSLSVSLGERATINCRASKSVDSYGNSFMHWYQQKPGQPPKLLIYLASNLESGVPDRFSGSGSGTDFTLTISSLQAEDVAVYYCQQNNEDPRTFGGGTKVEIKR",
    "kon": "305000 M⁻¹ s⁻¹"
  },
  {
    "BINDER": "NB-10 (antibody, human IgG4 S228P, kappa, V domains shown) VH: QVTLRESGPALVKPTQTLTLTCTVSGASLSAYSVNWIRQPPGKALEWLAMIWGDGKIVYNSALKSRLTISKDTSKNQVVLTMTNMDPVDTATYYCAGDGYYPYAMDNWGQGSLVTVSS VL: DIVMTQSPDSLSVSLGERATINCRASKSVDYYGNSFMHWYQQKPGQPPKLLIYLASNLESGVPDRFSGSGSGTDFTLTISSLQAEDVAVYYCQQNNEDPLTFGGGTKVEIKR",
    "kon": "62000 M⁻¹ s⁻¹"
  },
  {
    "BINDER": "NB-5 (antibody, human IgG4 S228P, kappa, V domains shown) VH: QVTLRESGPALVKPTQTLTLTCTVSGASLSAYSVNWIRQPPGKALEWLAMIWGSGKIVYNSALKSRLTISKDTSKNQVVLTMTNMDPVDTATYYCAGDGYYPYAMDNWGQGSLVTVSS VL: DIVMTQSPDSLSVSLGERATINCRASKSVDSYGNSFMHWYQQKPGQPPKLLIYLASNLESGVPDRFSGSGSGTDFTLTISSLQAEDVAVYYCQQNNEDPRTFGGGTKVEIKR",
    "kon": "303000 M⁻¹ s⁻¹"
  },
  {
    "BINDER": "NB-4 (antibody, human IgG4 S228P, kappa, V domains shown) VH: QVTLRESGPALVKPTQTLTLTCTVSGASLSAYSVNWIRQPPGKALEWLAMIWGDGKIVYNSALKSRLTISKDTSKNQVVLTMTNMDPVDTATYYCAGDGYYPYAMDNWGQGSLVTVSS VL: DIVMTQSPDSLSVSLGERATINCRASKSVDSYGNSFMHWYQQKPGQPPKLLIYLASNLESGVPDRFSGSGSGTDFTLTISSLQAEDVAVYYCQQNNEDPLTFGGGTKVEIKR",
    "kon": "74000 M⁻¹ s⁻¹"
  },
  {
    "BINDER": "NB-11 (antibody, human IgG4 S228P, kappa, V domains shown) VH: QVTLRESGPALVKPTQTLTLTCTVSGASLSAYSVNWIRQPPGKALEWLAMIWGDGTIVYNSALKSRLTISKDTSKNQVVLTMTNMDPVDTATYYCAGDGYFPYAMDNWGQGSLVTVSS VL: DIVMTQSPDSLSVSLGERATINCRASKSVDSYGHSFMHWYQQKPGQPPKLLIYLASNLESGVPDRFSGSGSGTDFTLTISSLQAEDVAVYYCQQNNEDPRTFGGGTKVEIKR",
    "kon": "139000 M⁻¹ s⁻¹"
  }
]

What value of kon has been reported for the following binder? NB-7 (antibody, human IgG4 S228P, kappa, V domains shown) VH: QVTLRESGPALVKPTQTLTLTCTVSGFSLSAYSVNWIRQPPGKALEWLAMIWGDGKIVYNSALKSRLTISKDTSKNQVVLTMTNMDPVDTATYYCAGDGYYPYAMDNWGQGSLVTVSS VL: DIVMTQSPDSLSVSLGERATINCRASKSVDSYGNSFMHWYQQKPGQPPKLLIYLASNLESGVPDRFSGSGSGTDFTLTISSLQAEDVAVYYCQQNNEDPLTFGGGTKVEIKR 100000 M⁻¹ s⁻¹

Entry NB-8 (antibody, human IgG4 S228P, kappa, V domains shown) VH: QVTLRESGPALVKPTQTLTLTCTVSGASLSAYSVNWIRQPPGKALEWLAMIWGDGKIVYNSALKSRLTISKDTSKNQVVLTMTNMDPVDTATYYCAGEGYYPYAMDYWGQGSLVTVSS VL: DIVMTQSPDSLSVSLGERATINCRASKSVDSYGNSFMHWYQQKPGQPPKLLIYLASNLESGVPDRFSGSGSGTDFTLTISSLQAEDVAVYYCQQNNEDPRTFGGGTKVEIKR has what kon? 259000 M⁻¹ s⁻¹

Look at this binder and give its reported kon. NB-6 (antibody, human IgG4 S228P, kappa, V domains shown) VH: QVTLRESGPALVKPTQTLTLTCTVSGASLSAYSVNWIRQPPGKALEWLAMISGDGKIVYNSALKSRLTISKDTSKNQVVLTMTNMDPVDTATYYCAGDGYYPYAMDNWGQGSLVTVSS VL: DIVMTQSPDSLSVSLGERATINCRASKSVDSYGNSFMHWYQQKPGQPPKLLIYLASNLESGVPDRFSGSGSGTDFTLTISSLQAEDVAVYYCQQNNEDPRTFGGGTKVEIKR 258000 M⁻¹ s⁻¹

What value of kon has been reported for the following binder? NB-12 (antibody, human IgG4 S228P, kappa, V domains shown) VH: QVTLRESGPALVKPTQTLTLTCTVSGASLSAYSVNWIRQPPGKALEWLAMIWGDGKIVYNSALKSRLTISKDTSKNQVVLTMTNMDPVDTATYYCAGDGYYPWAMDNWGQGSLVTVSS VL: DIVMTQSPDSLSVSLGERATINCRASQSVDSYGNSFMHWYQQKPGQPPKLLIYLASNLESGVPDRFSGSGSGTDFTLTISSLQAEDVAVYYCQQNNEDPRTFGGGTKVEIKR 117000 M⁻¹ s⁻¹

Could you share which kon value was measured for NB-2 (antibody, human IgG4 S228P, kappa, V domains shown) VH: QVTLRESGPALVKPTQTLTLTCTVSGFSLSAYSVNWIRQPPGKALEWLAMIWGDGKIVYNSALKSRLTISKDTSKNQVVLTMTNMDPVDTATYYCAGLGYYPYAMDNWGQGSLVTVSS VL: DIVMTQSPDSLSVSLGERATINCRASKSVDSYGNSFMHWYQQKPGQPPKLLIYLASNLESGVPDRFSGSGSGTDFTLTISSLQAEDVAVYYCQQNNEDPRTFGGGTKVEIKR ? 93000 M⁻¹ s⁻¹

Need kon of NB-3 (antibody, human IgG4 S228P, kappa, V domains shown) VH: QVTLRESGPALVKPTQTLTLTCTVSGASLSSYSVNWIRQPPGKALEWLAMIWGDGKIVYNSALKSRLTISKDTSKNQVVLTMTNMDPVDTATYYCAGEGYYPYAMDVWGQGSLVTVSS VL: DIVMTQSPDSLSVSLGERATINCRASKSVDSYGNSYMHWYQQKPGQPPKLLIYLASNLESGVPDRFSGSGSGTDFTLTISSLQAEDVAVYYCQQNNEDPRTFGGGTKVEIKR , thanks. 290000 M⁻¹ s⁻¹
